Origin of the recorded values: patent US20200199204A1

Target Of Assay: HIV-1 Env of Q23.17 (HIV-1)
Assay Details: cell-based or functional assay

Binder: CAP256-VRC26.11 (antibody, V domains shown) VH: EVQLVESGGGVVPPGKSLTLSCVASRFTFSAFGMHWVRQAPGKGLEWVASISFAGIKKYYADSVKGRFSISRDNSNTLFLQMNGLRGEDTGLYHCVKDMRELECEEWASDYYDFGKPQPCLDRRGVSGISAWWGPGTMVTVSS VL: QSVLTQPPSVSAAPGQNVTISCSGPPSHIEKNDVSWYQRLPGMAPKMVIYESKRRPLGIPVRFSASRSGSSATLVITGLQTADEADYYCGTWDGRMNFGTGTTVSVLG
neutralization IC50: > 50 µg/mL
//
Binder: CAP256-VRC26.01 (antibody, V domains shown) VH: EVQVVESGGGVVQPGRSLRLSCTASGFTFSNFAMGWVRQAPGKGLEWVAFISSDGSNKNYGDSVKGRFTISRDNSKNTVFLQMNSLRVEDTALYYCAKDVGDYKSDEWGTEYYDISISYPIQDPRAMVGAFDLWGQGTMVTVSP VL: QSVLTQPPSVSAAPGQKVTISCSGSSSTIGNNYVSWYRLLPGTAPKLLIYKNDNRPSGIPDRFSGSKSGTSATLGISGLQTGDEADYYCGTWDTSLSGGGVFGTGTKVTVLG
neutralization IC50: > 50 µg/mL
//
Binder: CAP256-VRC26.04 (antibody, V domains shown) VH: EVQLVESGGGVVQPGKSLRLSCAASQFSFNRYGMHWVRQAPGKGLEWVAAISYDGTDKYHADKVWGRFTISRDNSKNTLYLQMNSLRAEDTALYYCAKDLREDECEEWWSDYYDFGKQLPCRKSRGVAGIFDKWGQGTMVIVSS VL: QPVLTQPPSVSAAPGQKVTISCSGSSSNIGNNFVSWYQQRPGTAPSLLIYETNKRPSGIPDRFSGSKSATSATLAITGLQTGDEADYYCATWAASLTSARVFGTGTKVIVSG
neutralization IC50: 23.6 µg/mL
//
Binder: CAP256-VRC26.05 (antibody, V domains shown) VH: EVQLVESGGGVVQPGRSLRLSCAASHFSLSSYGMHWVRQAPGKGLEWVTGISFAGTKTYYGDSVRGRFTVSRDISKNTLFLQMNSLRPDDTAMYYCARDQRYYECEEWASDYYDFGREQPCLDPRGVVGIFDLWGQGTMVTVSS VL: QSALTQPPSVSAAPGQKVTISCSGNIGNNYVSWYQQVPGTAPKLLIYENNKRPSGIPDRFSGSKSGTSATLVITGLQTGDEADFYCGTWGGSLRTGGVLGTGTRVTVLG
neutralization IC50: > 50 µg/mL
